So I've got GI50 readings for human mammary cancer-derived KPL-4 cells, take a look.
endpoint.name: GI50

>>> df
                                   molecule                               system_name  endpoint_name  recorded_measurement
0        COC(=O)Cc1c(I)c(O)cc(O)c1-c1ccccc1  human mammary cancer-derived KPL-4 cells           GI50               ≤ 50 µM
1   COC(=O)Cc1c(C(C)=O)c(O)cc(O)c1-c1ccccc1  human mammary cancer-derived KPL-4 cells           GI50               ≤ 50 µM
2    CCc1c(O)cc(O)c(-c2ccccc2)c1CCCOC(CO)CO  human mammary cancer-derived KPL-4 cells           GI50               ≤ 50 µM
3     COC(=O)C=Cc1c(Br)c(O)cc(O)c1-c1ccccc1  human mammary cancer-derived KPL-4 cells           GI50               ≤ 50 µM
4  CCc1c(O)cc(O)c(-c2ccco2)c1CC(=O)N(C)CCOC  human mammary cancer-derived KPL-4 cells           GI50               ≤ 50 µM
5  CCc1c(O)cc(O)c(-c2cccc(OCc3ccccn3)c2)c1CCOCC(O)CO (stereo not drawn)  human mammary cancer-derived KPL-4 cells           GI50               ≤ 50 µM
6     CCc1c(O)cc(O)c(-c2cccc(C)c2)c1CCOCCOC  human mammary cancer-derived KPL-4 cells           GI50               ≤ 50 µM
7   COc1cccc(-c2c(O)cc(O)c(Br)c2CC(C)=NO)c1  human mammary cancer-derived KPL-4 cells           GI50               ≤ 50 µM
8  O=C(Cc1c(Br)c(O)cc(O)c1-c1ccccc1)NCc1ccncc1  human mammary cancer-derived KPL-4 cells           GI50               ≤ 50 µM

All figures here come from patent US7538241B2.
